Please provide measured half-life at 20 µM for the entries that follow.
- assay_procedure: Half life in simulated intestinal fluid at 20 uM by LC-MS/MS analysis
- Type: ADME

[[record]]
molecule_smiles = "CC(=O)N[C@H](C(=O)N[C@@H](CCC(N)=O)C(=O)N[C@H](C(=O)N[C@@H](Cc1c[nH]c2ccccc12)C(=O)N[C@@H](CCC(N)=O)C(=O)N[C@H](C(=O)N[C@@H](Cc1ccc(O)cc1)C(=O)N[C@@H](Cc1c[nH]c2ccccc12)C(=O)N[C@@](C)(CC(C)C)C(=O)N[C@@H](CCC(=O)O)C(=O)N[C@@H](CC(N)=O)C(=O)NCC(N)=O)C(C)(C)S)[C@@H](C)O)C(C)(C)S"
result = "3 to 6 h"


Next item in the queue.
Item: `CC(=O)NCCCC[C@H](NC(=O)C1(NC(=O)[C@H](Cc2ccc3ccccc3c2)NC(=O)[C@H](Cc2ccc(C(N)=O)cc2)NC(=O)[C@@H](NC(=O)[C@H](CCC(N)=O)NC(=O)[C@H](Cc2c[nH]c3ccccc23)NC(=O)[C@@H](NC(=O)[C@H](CC(N)=O)NC(=O)[C@@H](NC(C)=O)C(C)(C)S)[C@@H](C)O)C(C)(C)S)CCCC1)C(=O)N[C@@H](CC(N)=O)C(=O)N[C@@H](CC(N)=O)C(N)=O` | half-life at 20 µM: > 6 h
